System: Streptococcus pneumoniae
Experiment: Antibacterial activity against Streptococcus pneumoniae ATCC 49619 by broth microdilution method
Assay type: functional
Readout Name: log10(MIC) (log10 of the value in µg/mL)

Compound: CO[C@@H]1[C@@H](OC(=O)c2ccc(C)[nH]2)[C@@H](O)[C@H](Oc2ccc3c(O)c(NC(=O)c4cc(C)c(O)c(C)c4)c(=O)oc3c2Cl)OC1(C)C
Reported Result: 0.60
--
Compound: COc1cc(C(=O)Nc2c(O)c3ccc(O[C@@H]4OC(C)(C)[C@H](OC)[C@@H](OC(=O)c5ccc(C)[nH]5)[C@H]4O)c(Cl)c3oc2=O)ccc1O
Reported Result: 0.30
--
Compound: CO[C@@H]1[C@@H](OC(=O)c2ccc(C)[nH]2)[C@@H](O)[C@H](Oc2ccc3c(O)c(NC(=O)c4ccc(SC)cc4)c(=O)oc3c2Cl)OC1(C)C
Reported Result: 0.30
--
Compound: CO[C@@H]1[C@@H](OC(=O)c2ccc(C)[nH]2)[C@@H](O)[C@H](Oc2ccc3c(O)c(NC(=O)c4ccc(O)c(NC(=O)C(C)C)c4)c(=O)oc3c2Cl)OC1(C)C
Reported Result: 0.60
--
Compound: CO[C@@H]1[C@@H](OC(=O)c2ccc(C)[nH]2)[C@@H](O)[C@H](Oc2ccc3c(O)c(NC(=O)/C=C/c4ccccc4)c(=O)oc3c2Cl)OC1(C)C
Reported Result: 0.90
--
Compound: COc1cc(C(=O)Nc2c(O)c3ccc(O[C@@H]4OC(C)(C)[C@H](OC)[C@@H](OC(=O)c5ccc(C)[nH]5)[C@H]4O)c(C)c3oc2=O)ccc1O
Reported Result: 0.00
--
Compound: CO[C@@H]1[C@@H](OC(=O)c2ccc(C)[nH]2)[C@@H](O)[C@H](Oc2ccc3c(O)c(NC(=O)c4ccc(O)c(CC=C(C)C)c4)c(=O)oc3c2Cl)OC1(C)C [CHLOROBIOCIN]
Reported Result: -0.60

Reference source: ChEMBL document CHEMBL1275417
